// provenance: patent US20040037843A1

- ASSAYED SYSTEM: HLA-A*0201 (human)
pIC50: −log10 of the molar value.
# maps each entry to its pIC50

{"BINDER": "MMNDQLMFL [PSM.663]", "pIC50": "≥ 6.70"}
{"BINDER": "MLLRLSEPAEL [PSA.118 (11-mer MLLRLSEPAEL)]", "pIC50": "≥ 6.70"}
{"BINDER": "GLLGSTEWA [PSM.427]", "pIC50": "< 6.70"}
